Assignment: determine reported duplex melting temperature for the given sequences.
assay: duplex melting temperature (HRM, EvaGreen); higher = more stable duplex; details: duplex concentration 5 µM; backbone: PS-PO (listed strand fully phosphorothioate, complement phosphodiester)
Give bare numbers, in °C.

Record duplex melting temperature for all entries; do not skip any.
1. AGCTGAGCCTGCCGCC
2. GATGCCGCAGCGACCTG
3. GTGAGCAGAAGGGGTT
4. CGATTTTGTCAAGCCT
5. TTGTAGTTGACGTTTGTGATTTAGTGAATT
6. GCTGTGAAACAATGTAG

Outgoing:
[71.6, 72.2, 64.7, 57.8, 68.6, 57.4]

* * *

Assignment: determine reported duplex formation enthalpy ΔH for the given sequences.
assay: duplex formation enthalpy ΔH (Van't Hoff fit of HRM Tm); higher = less exothermic duplex formation; details: temperature for dG: 50 °C; NaCl: 500 mM (unadjusted); backbone: PS-PS (both strands fully phosphorothioate)
One number for each entry, in kcal/mol.

Examples with their reported duplex formation enthalpy ΔH follow.
seq	duplex formation enthalpy ΔH [kcal/mol]
TTCTACATCCATCTTAATCCCA	-78.1
CCCAGGCCTCGGATTTA	-77.5
TTAACCTGCAATGGATC	-67.1
CTAAACTGTTATAGCCGG	-62.5
GTGAAACAATGCTGTAG	-72.1
ACATGACTCATCTTAGCCGGCGAG	-115
AACGAATGTCAGCAATT	-68.5
AGCTGAGCCTGCCGCC	-75.3

Record duplex formation enthalpy ΔH for all entries; do not skip any.
1. CGTGCAGCACTACTTG
2. TGTAAGACTTCTGCCAGAAA
3. GAGCAGAAGGGGTTGT
4. GCCCGAGCATGACTGCG
5. ATAACTTACTCTCGCCT
6. GCTGAACTAACCACCA

Outgoing:
1. -67.6
2. -73.5
3. -63.9
4. -86.9
5. -64.9
6. -69.9

Record duplex formation enthalpy ΔH for all entries; do not skip any.
1. AGCACGGTGGTACAACA
2. GAGGCAGCCGCGACCTG
3. CGTGTGGATAATTAGCT

Outgoing:
[-67.6, -76.7, -80.3]

* * *

Assignment: determine reported duplex melting temperature for the given sequences.
assay: duplex melting temperature (HRM, EvaGreen); higher = more stable duplex; conditions: duplex concentration 2.5 µM; backbone: PS-PS (both strands fully phosphorothioate)
Answers are plain numbers, in °C.

seq	duplex melting temperature, °C
AGCACGGTGGTACAACA	53.8
GTGAAACAATGCTGTAG	46.8
CTTTTGTGCGGGTAGC	52.5
CGGCGCGCTG	47
GTGAGCAGAAGGGGTT	54.7

Record duplex melting temperature for all entries; do not skip any.
1. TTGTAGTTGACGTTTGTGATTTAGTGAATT
2. CGACATGTATGGCACAG
3. GCTGTGAAACAATGTAG
4. TGCCATGTTGAAAACC
5. CGATTTTGTCAAGCCT
6. TCTCGCGGTTCCATTA
7. GATGCCGCAGCGACCTG

Outgoing:
1. 59
2. 53.1
3. 45.7
4. 47
5. 48.3
6. 54.6
7. 64.2

Record duplex melting temperature for all entries; do not skip any.
1. CCACTAGCGGCGCCGTT
2. TGTCGCACCCTACTA
3. AGCTGAGCCTGCCGCC
4. ACTGTATCGCCCTA
5. CACAGCGACATGTATGG

Outgoing:
65.5
54
64
47.3
54.2

Record duplex melting temperature for all entries; do not skip any.
1. AGGAGTGAATGAAATGG
2. GATTGTATCATCGACATCACACTACC
3. AGACATCCCATACGAGCATCCA
4. AATGTCGAACAGCAATT
5. GCTGAACTAACCACCA
6. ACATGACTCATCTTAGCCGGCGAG

Outgoing:
[46.4, 58.4, 60.9, 50.7, 50.4, 65.8]

Record duplex melting temperature for all entries; do not skip any.
1. CCGCTCAGAGTAGAGA
2. CCGTTGCTGCTAGG
3. TTAACCTGCAATGGATC

Outgoing:
1. 52.6
2. 49.3
3. 48.6

Record duplex melting temperature for all entries; do not skip any.
1. CGTGCAGCACTACTTG
2. GGACGGCGTT
3. GCAGGAGCCGCGACCTG
4. TCTACACCGCGA
5. CGTGTGGATAATTAGCT
6. CTGTAAGGCGATATGTT
7. TAATTATACGAGTAGTTTCTGTCCTG
8. TTCGCGGTCTCCATTA

Outgoing:
1. 53.8
2. 43
3. 65.2
4. 45.5
5. 48.5
6. 49.3
7. 55.8
8. 55.7

Record duplex melting temperature for all entries; do not skip any.
1. GAACTGCCACTACCAA
2. GTCATTGTGCTTTTGC
3. GAACCGTTGATGATCTC
4. CAAGCCTCGATTTTGT
5. AACGAATGTCAGCAATT

Outgoing:
[52.2, 46.8, 49.9, 50.1, 49.9]

Record duplex melting temperature for all entries; do not skip any.
1. TACTTCCAACGTAGG
2. GGTGGCGTTCTT
3. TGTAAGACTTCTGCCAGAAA
4. TATTCTGCCAATGGAAC
5. CGCGCGAGTATTTATAACCT
6. CTCAGAGTAGAGCCGA

Outgoing:
1: 45.6; 2: 44.6; 3: 54; 4: 48.3; 5: 55.1; 6: 53.3

Record duplex melting temperature for all entries; do not skip any.
1. CAAACTTAGTAATCACGCCCAGCAACCA
2. GCCCGAGCATGACTGCG

Outgoing:
64.3
61.6
